Test system: SF-539
ASSAY_PROTOCOL: NCI tumour cell line growth inhibition, 48 h
Calls of active or inactive are those of the source. No stated cut-off is given here; in the data, active = GI50 up to about 1.1 µM and inactive = higher.
Each item that follows carries a reported GI50.
MEASURED_METRIC: GI50

C=C(C)C1=CCC[C@]2(C1)N=C(OC)[C@@H](C(C)C)N=C2OC
> 100 µM (inactive)
N#C/C(N)=C(C#N)/N=C/NCCO
> 100 µM (inactive)
CN(C(=O)CCC(=O)O)c1ccccc1C(=O)O
> 100 µM (inactive)
O=C1c2ccc3c4ccccc4n(-c4ccccc4)c3c2C(=O)N1c1ccc(Cl)cc1
> 100 µM (inactive)
CCOP1(=O)C=C(C)C(Cl)=C(C)C1 (centres undefined)
23.1 µM (inactive)
O=S(=O)(CCn1c(Sc2ccccc2)c(Sc2ccccc2)c2ccccc21)c1ccccc1
> 100 µM (inactive)
O=C(/C=C/c1ccc(O)c(O)c1)c1ccc(O)cc1O
11.2 µM (inactive)
Cc1ccc(Nc2nc3ccccc3c(=O)n2N)cc1
> 100 µM (inactive)
CN(C)CCNc1nc2ccccc2c2c1CCCC2
28.2 µM (inactive)

###

Each item that follows carries a reported GI50.
Tested on: M14
ASSAY_PROTOCOL: NCI tumour cell line growth inhibition, 48 h
Activity calls are given as the source filed them. No stated cut-off is given here; in the data, active = GI50 up to about 1.1 µM and inactive = higher.
MEASURED_METRIC: GI50

Cn1c(=O)c2c(nc(NCCNc3nc4c(c(=O)n(C)c(=O)n4C)n3C)n2C)n(C)c1=O
> 100 µM (inactive)
c1ccc([B-]23Oc4ccccc4[NH+]2c2ccccc2O3)cc1 (stereo not given)
> 100 µM (inactive)
Cc1ccc(C2SC(=N)Nc3c2c(C)nn3C(=O)c2ccccc2O)cc1 (stereo not given)
> 10 µM (inactive)
CN(C)c1ccc(/C=C(\NC(=O)c2ccccc2)c2nn(C)c(=O)o2)cc1
46 µM (inactive)
CN(C)CCNC(=O)c1cccc2ncc(-c3ccccc3)nc12
13.9 µM (inactive)

###

Each item that follows carries a reported GI50.
Tested on: SK-MEL-2
ASSAY_PROTOCOL: NCI tumour cell line growth inhibition, 48 h
Calls of active or inactive are those of the source. Cut-off read from the data, not from the text of the source: active = GI50 up to about 1.1 µM and inactive = higher.
MEASURED_METRIC: GI50

CC1C2CC=CC(=O)[C@@]2(C)CCC12OCCO2 (stereo partly specified)
> 100 µM (inactive)
O=C1[C@@H](c2ccc(Cl)cc2)[C@H]2CC=C[C@H]2N1O
> 100 µM (inactive)
Cc1ccc2c(c1C)-c1c(ccc(C)c1C)C(=O)C2=O
1.19 µM (inactive)
Cc1c(C)c(C)c(CC2(C)CSC2)c(CC2(C)CSC2)c1C
> 100 µM (inactive)
CCCCSC1=N/C(=C\c2ccc(N(C)C)cc2)C(Cl)=N1
> 100 µM (inactive)
CSC1=C(C#N)C(=S)N=C(N)C1C(=O)Nc1ccc(C)cc1 (stereo unspecified)
> 100 µM (inactive)

###

Each item that follows carries a reported GI50.
System: HOP-18
ASSAY_PROTOCOL: NCI tumour cell line growth inhibition, 48 h
Active and inactive are the calls of the source. Cut-off read from the data, not from the text of the source: active = GI50 up to about 1.1 µM and inactive = higher.
MEASURED_METRIC: GI50

N=C(NC(=S)N1CCCCC1)N1CCCCC1
> 100 µM (inactive)
Cc1cc(NC(=S)Nc2ccccc2)c(NC(=S)Nc2ccccc2)cc1C
43.2 µM (inactive)
CN1CCC(=O)/C(=C/c2ccccc2)C1
18.2 µM (inactive)
CSc1nc2c(c(O)c(C)c(=O)n2C2OC(COC(C)=O)C(OC(C)=O)C(OC(C)=O)C2OC(C)=O)c(=O)n1C (stereo not given)
> 100 µM (inactive)
CN(/N=C/c1cccc2cccnc12)c1c([N+](=O)[O-])cc([N+](=O)[O-])cc1[N+](=O)[O-]
> 100 µM (inactive)
CC1(C=O)C(=O)CCC2(C)C3CC(=O)OC3CCC12 (stereo not given)
> 100 µM (inactive)
O=C1c2cccc(O)c2C(=O)c2c(O)cc(CO)cc21 [ALOE-EMODIN]
> 100 µM (inactive)
O=C1C=CC(CC(=O)c2ccc3ccccc3c2)O1 (stereo not given)
35 µM (inactive)
CCN(CC)CCOc1ccc(C(=C2CCCCC2)c2ccc(OCCN(CC)CC)cc2)cc1
2.89 µM (inactive)
CCOC1(COP(=O)(OCc2ccccc2)OCc2ccccc2)COC(COP(=O)(OCc2ccccc2)OCc2ccccc2)(OCC)CO1 (stereo not given)
> 100 µM (inactive)
